# Test system: M. mucogenium group
# measurement description: MIC (CLSI broth dilution), RGM isolates
# Assay type: cell-based
# condition description: isolate 39, M. mucogenicum group, M. mucogenicum
Each record here notes measured MIC.
outcome measure: MIC

[[record]]
molecule = "CN(C)c1cc(NC(=O)CNC(C)(C)C)c(O)c2c1C[C@H]1C[C@H]3[C@H](N(C)C)C(O)=C(C(N)=O)C(=O)[C@@]3(O)C(O)=C1C2=O [Tigecycline, tigecycline]"
target_system = "M. mucogenium group"
assay_value = "0.12 µg/mL"

[[record]]
molecule = "NCC[C@H](O)C(=O)N[C@@H]1C[C@H](N)[C@@H](O[C@H]2O[C@H](CN)[C@@H](O)[C@H](O)[C@H]2O)[C@H](O)[C@H]1O[C@H]1O[C@H](CO)[C@@H](O)[C@H](N)[C@H]1O [Amikacin, amikacin]"
target_system = "M. mucogenium group"
assay_value = "≤2 µg/mL"

[[record]]
molecule = "C[C@@H](O)[C@H]1C(=O)N2C(C(=O)O)=C(SCCN=CN)C[C@H]12 [IPM, imipenem]"
target_system = "M. mucogenium group"
assay_value = "≤2 µg/mL"

[[record]]
molecule = "C[C@H]1c2cccc(O)c2C(=O)C2=C(O)[C@]3(O)C(=O)C(C(N)=O)=C(O)[C@@H](N(C)C)[C@@H]3[C@@H](O)[C@@H]21 [Doxycycline, doxycycline]"
target_system = "M. mucogenium group"
assay_value = "0.25 µg/mL"


* * *

# measurement description: Intra-pulmonary steady-state concentrations (plasma, ELF, alveolar cells) after multiple IV doses in healthy adult subjects
# Assay type: in vivo, human
# condition description: human, in vivo, Plasma concentration (mean ± SD)
outcome measure: concentration at 24 h (ng/mL)

[[record]]
molecule = "CN(C)c1cc(CNCC(C)(C)C)c(O)c2c1C[C@H]1C[C@H]3C(N(C)C)C(O)=C(C(N)=O)C(=O)[C@@]3(O)C(O)=C1C2=O (stereo partly shown) [Omadacycline]"
outcome_measure = "concentration at 24 h"
unit_info = "ng/mL"
assay_value = 270


* * *

This listing pairs molecules with measured MIC.
# Tested on: M. mucogenium group
# measurement description: MIC (CLSI broth dilution), RGM isolates
# Assay type: cell-based
# condition description: isolate 42, M. mucogenicum group, M. mucogenicum
outcome measure: MIC

[[record]]
molecule = "C[C@@H](O)[C@H]1C(=O)N2C(C(=O)O)=C(SCCN=CN)C[C@H]12 [IPM, imipenem]"
outcome_measure = "MIC"
assay_value = "≤2 µg/mL"

[[record]]
molecule = "CN(C)c1cc(NC(=O)CNC(C)(C)C)c(O)c2c1C[C@H]1C[C@H]3[C@H](N(C)C)C(O)=C(C(N)=O)C(=O)[C@@]3(O)C(O)=C1C2=O [Tigecycline, tigecycline]"
outcome_measure = "MIC"
assay_value = "0.12 µg/mL"

[[record]]
molecule = "C[C@H]1c2cccc(O)c2C(=O)C2=C(O)[C@]3(O)C(=O)C(C(N)=O)=C(O)[C@@H](N(C)C)[C@@H]3[C@@H](O)[C@@H]21 [Doxycycline, doxycycline]"
outcome_measure = "MIC"
assay_value = "≤0.12 µg/mL"

[[record]]
molecule = "NCC[C@H](O)C(=O)N[C@@H]1C[C@H](N)[C@@H](O[C@H]2O[C@H](CN)[C@@H](O)[C@H](O)[C@H]2O)[C@H](O)[C@H]1O[C@H]1O[C@H](CO)[C@@H](O)[C@H](N)[C@H]1O [Amikacin, amikacin]"
outcome_measure = "MIC"
assay_value = "≤2 µg/mL"


* * *

This listing pairs compounds with measured MIC.
# Tested on: M. chelonae
# measurement description: MIC (CLSI broth dilution), RGM isolates
# Assay type: cell-based
# condition description: Mycobacteroides chelonae, isolate 20, M. chelonae; read-out: MIC
outcome measure: MIC (µg/mL)

[[record]]
compound = "CO[C@@]1(NC(=O)Cc2cccs2)C(=O)N2C(C(=O)O)=C(COC(N)=O)CS[C@@H]21 [FOX, cefoxitin]"
unit_info = "µg/mL"
relation_symbol = ">"
assay_value = 64

[[record]]
compound = "CC(=O)NC[C@H]1CN(c2ccc(N3CCOCC3)c(F)c2)C(=O)O1 [linezolid]"
unit_info = "µg/mL"
relation_symbol = "="
assay_value = 4

[[record]]
compound = "COc1c(N2C[C@@H]3CCCN[C@@H]3C2)c(F)cc2c(=O)c(C(=O)O)cn(C3CC3)c12 [MXF, moxifloxacin]"
unit_info = "µg/mL"
relation_symbol = "="
assay_value = 2

[[record]]
compound = "CN(C)c1cc(CNCC(C)(C)C)c(O)c2c1C[C@H]1C[C@H]3[C@H](N(C)C)C(O)=C(C(N)=O)C(=O)[C@@]3(O)C(O)=C1C2=O [OMC]"
unit_info = "µg/mL"
relation_symbol = "="
assay_value = 0.12

[[record]]
compound = "NC[C@H]1O[C@H](O[C@H]2[C@H](O)[C@@H](O[C@H]3O[C@H](CO)[C@@H](O)[C@H](N)[C@H]3O)[C@H](N)C[C@@H]2N)[C@H](N)C[C@@H]1O [TOB, tobramycin]"
unit_info = "µg/mL"
relation_symbol = "≤"
assay_value = 2

[[record]]
compound = "CN(C)c1ccc(O)c2c1C[C@H]1C[C@H]3[C@H](N(C)C)C(O)=C(C(N)=O)C(=O)[C@@]3(O)C(O)=C1C2=O [minocycline]"
unit_info = "µg/mL"
relation_symbol = ">"
assay_value = 8


* * *

# measurement description: Intra-pulmonary steady-state concentrations (plasma, ELF, alveolar cells) after multiple IV doses in healthy adult subjects
# Type: in vivo, human
# condition description: human, in vivo, Ratio of Omadacycline Concentrations in Epithelial Lining Fluid to Plasma (Mean, SD)
outcome measure: Kp at 4 h

[[record]]
compound = "CN(C)c1cc(CNCC(C)(C)C)c(O)c2c1C[C@H]1C[C@H]3C(N(C)C)C(O)=C(C(N)=O)C(=O)[C@@]3(O)C(O)=C1C2=O (stereo partly shown)"
assay_value = 1.79


* * *

Quick reference: MIC of the listed items.
# Test system: M. fortuitum group
# measurement description: MIC (CLSI broth dilution), RGM isolates
# Format: cell-based
# condition description: Mycolicibacterium fortuitum, isolate 25, M. fortuitum group, M. fortuitum; read-out: MIC
outcome measure: MIC (µg/mL)

[[record]]
molecule = "CC(=O)NC[C@H]1CN(c2ccc(N3CCOCC3)c(F)c2)C(=O)O1 [linezolid]"
relation_symbol = "="
assay_value = 4

[[record]]
molecule = "CO[C@@]1(NC(=O)Cc2cccs2)C(=O)N2C(C(=O)O)=C(COC(N)=O)CS[C@@H]21 [FOX, cefoxitin]"
relation_symbol = "="
assay_value = 32

[[record]]
molecule = "COc1c(N2C[C@@H]3CCCN[C@@H]3C2)c(F)cc2c(=O)c(C(=O)O)cn(C3CC3)c12 [MXF, moxifloxacin]"
relation_symbol = "≤"
assay_value = 0.06

[[record]]
molecule = "CN(C)c1ccc(O)c2c1C[C@H]1C[C@H]3[C@H](N(C)C)C(O)=C(C(N)=O)C(=O)[C@@]3(O)C(O)=C1C2=O [minocycline]"
relation_symbol = ">"
assay_value = 8

[[record]]
molecule = "CN(C)c1cc(CNCC(C)(C)C)c(O)c2c1C[C@H]1C[C@H]3[C@H](N(C)C)C(O)=C(C(N)=O)C(=O)[C@@]3(O)C(O)=C1C2=O [OMC]"
relation_symbol = "="
assay_value = 0.12


* * *

Entries and their measured MIC follow.
# Test system: M. mucogenium group
# measurement description: MIC (CLSI broth dilution), RGM isolates
# Format: cell-based
# condition description: isolate 46, M. mucogenicum group, M. phocaicum
outcome measure: MIC

[[record]]
given_smiles = "C[C@@H](O)[C@H]1C(=O)N2C(C(=O)O)=C(SCCN=CN)C[C@H]12"
assay_value = "≤2 µg/mL"

[[record]]
given_smiles = "C[C@H]1c2cccc(O)c2C(=O)C2=C(O)[C@]3(O)C(=O)C(C(N)=O)=C(O)[C@@H](N(C)C)[C@@H]3[C@@H](O)[C@@H]21"
assay_value = ">8 µg/mL"

[[record]]
given_smiles = "CN(C)c1cc(NC(=O)CNC(C)(C)C)c(O)c2c1C[C@H]1C[C@H]3[C@H](N(C)C)C(O)=C(C(N)=O)C(=O)[C@@]3(O)C(O)=C1C2=O"
assay_value = "0.06 µg/mL"

[[record]]
given_smiles = "NCC[C@H](O)C(=O)N[C@@H]1C[C@H](N)[C@@H](O[C@H]2O[C@H](CN)[C@@H](O)[C@H](O)[C@H]2O)[C@H](O)[C@H]1O[C@H]1O[C@H](CO)[C@@H](O)[C@H](N)[C@H]1O"
assay_value = "≤2 µg/mL"


* * *

# Tested on: M. chelonae
# measurement description: MIC (CLSI broth dilution), RGM isolates
# Format: cell-based
# condition description: Mycobacteroides chelonae, isolate 18, M. chelonae; read-out: MIC
Documented MIC across a set of compounds
outcome measure: MIC (µg/mL)

[[record]]
given_smiles = "CN(C)c1cc(CNCC(C)(C)C)c(O)c2c1C[C@H]1C[C@H]3[C@H](N(C)C)C(O)=C(C(N)=O)C(=O)[C@@]3(O)C(O)=C1C2=O"
relation_symbol = "="
assay_value = 0.12

[[record]]
given_smiles = "CC(=O)NC[C@H]1CN(c2ccc(N3CCOCC3)c(F)c2)C(=O)O1"
relation_symbol = "="
assay_value = 16

[[record]]
given_smiles = "CN(C)c1ccc(O)c2c1C[C@H]1C[C@H]3[C@H](N(C)C)C(O)=C(C(N)=O)C(=O)[C@@]3(O)C(O)=C1C2=O"
relation_symbol = ">"
assay_value = 8

[[record]]
given_smiles = "COc1c(N2C[C@@H]3CCCN[C@@H]3C2)c(F)cc2c(=O)c(C(=O)O)cn(C3CC3)c12"
relation_symbol = "="
assay_value = 4

[[record]]
given_smiles = "NC[C@H]1O[C@H](O[C@H]2[C@H](O)[C@@H](O[C@H]3O[C@H](CO)[C@@H](O)[C@H](N)[C@H]3O)[C@H](N)C[C@@H]2N)[C@H](N)C[C@@H]1O"
relation_symbol = "≤"
assay_value = 2

[[record]]
given_smiles = "CO[C@@]1(NC(=O)Cc2cccs2)C(=O)N2C(C(=O)O)=C(COC(N)=O)CS[C@@H]21"
relation_symbol = ">"
assay_value = 64

